- STUDY TARGET: TSLP (as used in the human PBMC assay) (UniProt Q969D9 29-159)
- EXPERIMENTAL DETAILS: cell-based or functional assay
*1 amine or outer side, *2 acyl side, *3 side chain or, on linkers, in order; H or OH if unused. Bridges are numbered along the chain shown (N, C = ends). [ ]: non-standard residue; d: D form. The star is where a group is joined. X1 = N3CH2C(O)NH(CH2CH2O)3CH2CH2(CO), [N-]=[N+]=NCC(=O)NCCOCCOCCOCCC(=O)*; TATA = O=C(CC[*:1])N1CN(C(=O)CC[*:2])CN(C(=O)CC[*:3])C1; Trp(1-Me) = Cn1cc(C[C@H](N)C(=O)O)c2ccccc21; Arg(Me2a) = CN(C)C(=N)NCCC[C@H](N)C(=O)O; Phe(4-F) = N[C@@H](Cc1ccc(F)cc1)C(=O)O; tBuAla = CC(C)(C)C[C@H](N)C(=O)O; NMeA = CN[C@@H](C)C(=O)O

BINDER | CCL17 % Inhibition @ 10 µM, 50 pM TSLP, %
X1-C[NMeA][Trp(1-Me)][tBuAla]QDC[Trp(1-Me)][Arg(Me2a)]G[Phe(4-F)]C-NH2 (linker 1-7-12 via TATA; also: trimer: three peptides clicked via N-terminal azido linker to N-but-3-yn-1-yl-N2,N6-dipent-4-ynoyl-L-lysinamide core, Trimer of identical bicyclic peptides on a tri-alkyne lysinamide core (formula with F3, S9)) [Example 250] | 83
